Tested on: JHH-7 (Hepatocellular Carcinoma)
method: combination Emax (second highest fraction inhibited in the dose matrix, 72 h); higher = more inhibition; extreme values may be limits of the assay
recorded-endpoint: combination Emax

{"columns": ["compound", "value-observed"],
 "data": [
  ["CC1(C)CCC(CN2CCN(c3ccc(C(=O)NS(=O)(=O)c4ccc(NCC5CCOCC5)c([N+](=O)[O-])c4)c(Oc4cnc5[nH]ccc5c4)c3)CC2)=C(c2ccc(Cl)cc2)C1 [Venetoclax] + COc1cc(Nc2ncc3c(n2)-c2ccc(Cl)cc2C(c2c(F)cccc2OC)=NC3)ccc1C(=O)O [Alisertib] (first compound max 1 µM, 7x7, partner max 10 µM)", 0.287],
  ["CN(CCO)CC[C@H](CSc1ccccc1)Nc1ccc(S(=O)(=O)NC(=O)c2ccc(N3CCC([C@@H](O)c4ccccc4-c4ccc(Cl)cc4)CC3)cc2)cc1S(=O)(=O)C(F)(F)F [AZD4320] + Nc1ccn([C@@H]2O[C@H](CO)[C@@H](O)C2(F)F)c(=O)n1 [Gemcitabine] (first compound max 1 µM, 7x7, partner max 0.3 µM)", 0.284],
  ["Cc1c2c(nn1C)CSCc1cc(n(C)n1)CSc1cc(c3ccccc3c1)OCCCc1c(C(=O)O)n(C)c3c-2c(Cl)ccc13 [AZD5991] + C1CN(CCC1(C(=O)N[C@@H](CCO)C2=CC=C(C=C2)Cl)N)C3=NC=NC4=C3C=CN4 [Capivasertib] (first compound max 1 µM, 7x7, partner max 3 µM)", 0.188]
]}

* * *

Tested on: U-87-MG (Glioblastoma)
method: Bliss excess, mean over the matrix (fraction); higher = more synergy
So basically: Bliss excess at -0.03 or higher? That is Y. Lower than -0.03? That is N.

{"columns": ["molecule", "cat"],
 "data": [
  ["CC(=O)Nc1cccc(-n2c(=O)n(C3CC3)c(=O)c3c(Nc4ccc(I)cc4F)n(C)c(=O)c(C)c32)c1 [Trametinib] + Cc1nc(-c2cn3c(n2)-c2ccc(-c4cnn(C(C)(C)C(N)=O)c4)cc2OCC3)n(C(C)C)n1 [Taselisib] (first compound max 1 µM, 7x7, partner max 10 µM)", "Y"],
  ["Cc1c2c(nn1C)CSCc1cc(n(C)n1)CSc1cc(c3ccccc3c1)OCCCc1c(C(=O)O)n(C)c3c-2c(Cl)ccc13 [AZD5991] + C=CCn1c(=O)c2cnc(Nc3ccc(N4CCN(C)CC4)cc3)nc2n1-c1cccc(C(C)(C)O)n1 [AZD1775] (first compound max 1 µM, partner max 1 µM)", "Y"],
  ["Cc1c2c(nn1C)CSCc1cc(n(C)n1)CSc1cc(c3ccccc3c1)OCCCc1c(C(=O)O)n(C)c3c-2c(Cl)ccc13 [AZD5991] + CC1(C)CCC(CN2CCN(c3ccc(C(=O)NS(=O)(=O)c4ccc(NCC5CCOCC5)c([N+](=O)[O-])c4)c(Oc4cnc5[nH]ccc5c4)c3)CC2)=C(c2ccc(Cl)cc2)C1 [Venetoclax] (first compound max 1 µM, 7x7, partner max 1 µM)", "N"],
  ["NC1(C(=O)N[C@@H](CCO)c2ccc(Cl)cc2)CCN(c2ncnc3[nH]ccc23)CC1 [Capivasertib] + CC(C)n1c(=O)n(C)c2cnc3cc(F)c(-c4ccc(OCCCN5CCCCC5)nc4)cc3c21 [AZD1390] (first compound max 10 µM, 7x7, partner max 0.3 µM)", "N"],
  ["Cc1c2c(nn1C)CSCc1cc(n(C)n1)CSc1cc(c3ccccc3c1)OCCCc1c(C(=O)O)n(C)c3c-2c(Cl)ccc13 [AZD5991] + CCN(CCO)CCCOc1ccc2c(Nc3cc(CC(=O)Nc4cccc(F)c4)[nH]n3)ncnc2c1 [AZD2811] (first compound max 1 µM, 7x7, partner max 1 µM)", "Y"],
  ["CC(=O)c1c(C)c2cnc(Nc3ccc(N4CCNCC4)cn3)nc2n(C2CCCC2)c1=O [Palbociclib] + Cc1c2c(nn1C)CSCc1cc(n(C)n1)CSc1cc(c3ccccc3c1)OCCCc1c(C(=O)O)n(C)c3c-2c(Cl)ccc13 [AZD5991] (first compound max 10 µM, 7x7, partner max 1 µM)", "N"]
]}

* * *

Overview of recorded Bliss excess for various compounds
System: NCI-H2405 (Lung Adenocarcinoma)
method: Bliss excess, mean over the matrix (fraction); higher = more synergy
recorded-endpoint: Bliss excess

{"columns": ["compound", "subject-of-test", "recorded-endpoint", "value-observed"],
 "data": [
  ["COc1cccc2c1C(=O)c1c(O)c3c(c(O)c1C2=O)C[C@@](O)(C(=O)CO)C[C@@H]3O[C@H]1C[C@H](N)[C@H](O)[C@H](C)O1 [Doxorubicin] + Cc1cc2ncnn2cc1Nc1ncc2c(n1)n(C1CCOCC1)c(=O)n2C [AZD7648] (first compound max 1 µM, 7x7, partner max 10 µM)", "NCI-H2405 (Lung Adenocarcinoma)", "Bliss excess", -0.0042],
  ["CC1(C)CCC(CN2CCN(c3ccc(C(=O)NS(=O)(=O)c4ccc(NCC5CCOCC5)c([N+](=O)[O-])c4)c(Oc4cnc5[nH]ccc5c4)c3)CC2)=C(c2ccc(Cl)cc2)C1 [Venetoclax] + C[C@@H]1COCCN1C2=NC(=NC(=C2)C3(CC3)[S@](=N)(=O)C)C4=C5C=CNC5=NC=C4 [AZD6738] (first compound max 1 µM, 7x7, partner max 10 µM)", "NCI-H2405 (Lung Adenocarcinoma)", "Bliss excess", -0.06],
  ["C[C@@H](c1ccc2nccn2c1)n1nnc2ncc(-c3cnn(C)c3)nc21 [Savolitinib] + CC1(C)CCC(CN2CCN(c3ccc(C(=O)NS(=O)(=O)c4ccc(NCC5CCOCC5)c([N+](=O)[O-])c4)c(Oc4cnc5[nH]ccc5c4)c3)CC2)=C(c2ccc(Cl)cc2)C1 [Venetoclax] (first compound max 1 µM, 7x7, partner max 1 µM)", "NCI-H2405 (Lung Adenocarcinoma)", "Bliss excess", -0.0793],
  ["COc1nnc2ccc(N3CCC(c4ccc(OCCN5CCN(C)C(=O)[C@H]5C)cc4)CC3)nn12 [AZD5153] + CCN(CCO)CCCOc1ccc2c(Nc3cc(CC(=O)Nc4cccc(F)c4)[nH]n3)ncnc2c1 [AZD2811] (first compound max 1 µM, 7x7, partner max 1 µM)", "NCI-H2405 (Lung Adenocarcinoma)", "Bliss excess", -0.0102],
  ["COc1nnc2ccc(N3CCC(c4ccc(OCCN5CCN(C)C(=O)[C@H]5C)cc4)CC3)nn12 [AZD5153] + Cc1c2c(nn1C)CSCc1cc(n(C)n1)CSc1cc(c3ccccc3c1)OCCCc1c(C(=O)O)n(C)c3c-2c(Cl)ccc13 [AZD5991] (first compound max 1 µM, 7x7, partner max 1 µM)", "NCI-H2405 (Lung Adenocarcinoma)", "Bliss excess", 0.01],
  ["Cc1cc2ncnn2cc1Nc1ncc2c(n1)n(C1CCOCC1)c(=O)n2C [AZD7648] + CN(C)CCCOc1ccc(-c2ccc3ncc4c(c3c2)n(C2CCOCC2)c(=O)n4C)cn1 [AZD0156] (first compound max 10 µM, 7x7, partner max 1 µM)", "NCI-H2405 (Lung Adenocarcinoma)", "Bliss excess", -0.0074],
  ["CC(=O)c1c(C)c2cnc(Nc3ccc(N4CCNCC4)cn3)nc2n(C2CCCC2)c1=O [Palbociclib] + Cn1cnc2c(F)c(Nc3ccc(Br)cc3Cl)c(C(=O)NOCCO)cc21 [Selumetinib] (first compound max 10 µM, 7x7, partner max 10 µM)", "NCI-H2405 (Lung Adenocarcinoma)", "Bliss excess", -0.016]
]}

* * *

Test system: EBC-1 (Squamous Cell Lung Carcinoma)
method: combination Emax (second highest fraction inhibited in the dose matrix, 72 h); higher = more inhibition; extreme values may be limits of the assay
Overview of recorded combination Emax for various molecules

{"columns": ["molecule", "combination Emax"],
 "data": [
  ["COc1cc2c(cc1OCCCCCOc1cc3c(cc1OC)C(=O)N1C=C(C)C[C@H]1C=N3)N=C[C@@H]1CC(C)=CN1C2=O [SG3199] + O=C(c1cc(Cc2n[nH]c(=O)c3ccccc23)ccc1F)N1CCN(C(=O)C2CC2)CC1 [Olaparib] (first compound max 0.001 µM, 7x7, partner max 10 µM)", 0.183],
  ["COc1cccc(OCCCN)c1-c1cc(Nc2cnc(C#N)cn2)n[nH]1 [Prexasertib] + C=CCn1c(=O)c2cnc(Nc3ccc(N4CCN(C)CC4)cc3)nc2n1-c1cccc(C(C)(C)O)n1 [AZD1775] (first compound max 1 µM, partner max 1 µM)", 0.666],
  ["CN(CCO)CC[C@H](CSc1ccccc1)Nc1ccc(S(=O)(=O)NC(=O)c2ccc(N3CCC([C@@H](O)c4ccccc4-c4ccc(Cl)cc4)CC3)cc2)cc1S(=O)(=O)C(F)(F)F [AZD4320] + CCN(CCO)CCCOc1ccc2c(Nc3cc(CC(=O)Nc4cccc(F)c4)[nH]n3)ncnc2c1 [AZD2811] (first compound max 1 µM, 7x7, partner max 1 µM)", 0.931]
]}

* * *

Tested on: DG-75 (Burkitt's Lymphoma)
method: Bliss excess, mean over the matrix (fraction); higher = more synergy
Overview of recorded Bliss excess for various compounds

{"columns": ["compound", "Bliss excess"],
 "data": [
  ["Cc1cc2ncnn2cc1Nc1ncc2c(n1)n(C1CCOCC1)c(=O)n2C [AZD7648] + CCN(CCO)CCCOc1ccc2c(Nc3cc(CC(=O)Nc4cccc(F)c4)[nH]n3)ncnc2c1 [AZD2811] (first compound max 10 µM, 7x7, partner max 1 µM)", 0.0393],
  ["Cc1c2c(nn1C)CSCc1cc(n(C)n1)CSc1cc(c3ccccc3c1)OCCCc1c(C(=O)O)n(C)c3c-2c(Cl)ccc13 [AZD5991] + CC1(C)CCC(CN2CCN(c3ccc(C(=O)NS(=O)(=O)c4ccc(NCC5CCOCC5)c([N+](=O)[O-])c4)c(Oc4cnc5[nH]ccc5c4)c3)CC2)=C(c2ccc(Cl)cc2)C1 [Venetoclax] (first compound max 1 µM, 7x7, partner max 1 µM)", -0.0246],
  ["COc1cccc(OCCCN)c1-c1cc(Nc2cnc(C#N)cn2)n[nH]1 [Prexasertib] + C[C@@H]1COCCN1C2=NC(=NC(=C2)C3(CC3)[S@](=N)(=O)C)C4=C5C=CNC5=NC=C4 [AZD6738] (first compound max 1 µM, 7x7, partner max 10 µM)", -0.0381],
  ["NC1(C(=O)N[C@@H](CCO)c2ccc(Cl)cc2)CCN(c2ncnc3[nH]ccc23)CC1 [Capivasertib] + CCN(CCO)CCCOc1ccc2c(Nc3cc(CC(=O)Nc4cccc(F)c4)[nH]n3)ncnc2c1 [AZD2811] (first compound max 10 µM, 7x7, partner max 1 µM)", 0.04],
  ["COc1cccc(OCCCN)c1-c1cc(Nc2cnc(C#N)cn2)n[nH]1 [Prexasertib] + C=CCn1c(=O)c2cnc(Nc3ccc(N4CCN(C)CC4)cc3)nc2n1-c1cccc(C(C)(C)O)n1 [AZD1775] (first compound max 1 µM, partner max 1 µM)", 0.0708],
  ["Cc1c2c(nn1C)CSCc1cc(n(C)n1)CSc1cc(c3ccccc3c1)OCCCc1c(C(=O)O)n(C)c3c-2c(Cl)ccc13 [AZD5991] + Cc1cc2ncnn2cc1Nc1ncc2c(n1)n(C1CCOCC1)c(=O)n2C [AZD7648] (first compound max 1 µM, 7x7, partner max 10 µM)", 0.0116],
  ["C=CCn1c(=O)c2cnc(Nc3ccc(N4CCN(C)CC4)cc3)nc2n1-c1cccc(C(C)(C)O)n1 [AZD1775] + O=C(c1cc(Cc2n[nH]c(=O)c3ccccc23)ccc1F)N1CCN(C(=O)C2CC2)CC1 [Olaparib] (first compound max 1 µM, partner max 10 µM)", -0.0491]
]}
